Conditions: in water, 308.15 K
Measure: solubility (mole fraction)
// return just the number, without any unit appended

For the compound shown here, "CC(=O)Nc1ccc([N+](=O)[O-])cc1" , give the reported solubility (mole fraction).
2.89e-05

* * *

Conditions: in ethylene glycol, 298.15 K
Measure: solubility (mole fraction)
Format: numeric value only, no unit, no commentary.

Param item = "CC(=O)Nc1ccc([N+](=O)[O-])cc1" ; retrieve measured solubility (mole fraction).
0.00171

* * *

Conditions: in acetonitrile, 318.15 K
Measure: solubility (mole fraction)
No unit in the answer, please; the number alone is enough.

# get_value(readout='solubility (mole fraction)', item= "CC(=O)Nc1ccc([N+](=O)[O-])cc1" )
0.00923

* * *

Conditions: in cyclohexane, 298.15 K
Measure: solubility (mole fraction)
# output: bare number, no unit

Fill in: solubility (mole fraction) of "CC(=O)Nc1ccc([N+](=O)[O-])cc1" is ___
5.18e-06

* * *

Details: in n-heptanol, 293.15 K
Measure: solubility (mole fraction)
Returns: the value as a bare number; no unit string appended.

Would you kindly share the measured solubility (mole fraction) for "CC(=O)Nc1ccc([N+](=O)[O-])cc1" ?
0.00417

* * *

Conditions: in methanol, 303.15 K
Measure: solubility (mole fraction)

If you can, please state the reported solubility (mole fraction) value of "CC(=O)Nc1ccc([N+](=O)[O-])cc1" .
0.00366

* * *

Details: in n-propanol, 278.15 K
Measure: solubility (mole fraction)
Form: value (number only, do not type unit).

Using the record for "CC(=O)Nc1ccc([N+](=O)[O-])cc1" , report its solubility (mole fraction).
0.0021

* * *

Details: in acetonitrile, 323.15 K
Measure: solubility (mole fraction)
Hey, just send me the number, nothing else.

State the recorded solubility (mole fraction) for this entry: "CC(=O)Nc1ccc([N+](=O)[O-])cc1"
0.011

* * *

Conditions: in n-butanol, 293.15 K
Measure: solubility (mole fraction)
Form: value (number only, do not type unit).

Requested read-out: solubility (mole fraction). Entry: "CC(=O)Nc1ccc([N+](=O)[O-])cc1"
0.0036

* * *

Settings: in isopropanol, 278.15 K
Measure: solubility (mole fraction)
In your answer, state the number alone without any accompanying words.

// query solubility (mole fraction) value for entry "CC(=O)Nc1ccc([N+](=O)[O-])cc1"
0.00166

* * *

Conditions: in 1,4-dioxane, 313.15 K
Measure: solubility (mole fraction)
Form: value (number only, do not type unit).

Please give the measured solubility (mole fraction) for this compound: "CC(=O)Nc1ccc([N+](=O)[O-])cc1"
0.0127

* * *

Conditions: in n-butanol, 313.15 K
Measure: solubility (mole fraction)
Reply: number alone, nothing else.

Data request, read-out solubility (mole fraction), for "CC(=O)Nc1ccc([N+](=O)[O-])cc1"
0.0074

* * *

Settings: in acetonitrile, 313.15 K
Measure: solubility (mole fraction)

Requested field: solubility (mole fraction). Item: "CC(=O)Nc1ccc([N+](=O)[O-])cc1"
0.00778

* * *

Conditions: in methanol, 298.15 K
Measure: solubility (mole fraction)
Please give only the number in your answer, with no unit.

# solubility (mole fraction) lookup, item "CC(=O)Nc1ccc([N+](=O)[O-])cc1"
0.00312

* * *

Details: in ethanol, 313.15 K
Measure: solubility (mole fraction)
Please give only the number in your answer, with no unit.

Which solubility (mole fraction) is listed for "CC(=O)Nc1ccc([N+](=O)[O-])cc1" ?
0.00641

* * *

Settings: in methanol, 318.15 K
Measure: solubility (mole fraction)
# answer = number (no unit)

Entry "CC(=O)Nc1ccc([N+](=O)[O-])cc1" : reported solubility (mole fraction) = ?
0.0065

* * *

Conditions: in n-heptanol, 288.15 K
Measure: solubility (mole fraction)

Quick check: solubility (mole fraction) of "CC(=O)Nc1ccc([N+](=O)[O-])cc1" ?
0.00354

* * *

Settings: in n-butanol, 278.15 K
Measure: solubility (mole fraction)
Response field accepts a number only; no unit should be typed.

Need solubility (mole fraction) of "CC(=O)Nc1ccc([N+](=O)[O-])cc1" , thanks.
0.00225

* * *

Conditions: in isopropanol, 318.15 K
Measure: solubility (mole fraction)
# answer = number (no unit)

Requested read-out: solubility (mole fraction). Entry: "CC(=O)Nc1ccc([N+](=O)[O-])cc1"
0.00736

* * *

Details: in ethanol, 323.15 K
Measure: solubility (mole fraction)
API note: the answer field is a bare number with no unit suffix.

Fill in: solubility (mole fraction) of "CC(=O)Nc1ccc([N+](=O)[O-])cc1" is ___
0.00921

* * *

Settings: in water, 293.15 K
Measure: solubility (mole fraction)
A bare number is all that is needed in reply.

For "CC(=O)Nc1ccc([N+](=O)[O-])cc1" , what is its reported solubility (mole fraction)?
1.34e-05

* * *

Conditions: in cyclohexane, 313.15 K
Measure: solubility (mole fraction)
I'd appreciate a reply containing only the number, no unit.

Query (molecule): "CC(=O)Nc1ccc([N+](=O)[O-])cc1" ; field requested: solubility (mole fraction)
1.16e-05

* * *

Details: in isobutanol, 288.15 K
Measure: solubility (mole fraction)
Please state the value as a number alone, without comment.

I would be grateful if you could share the reported solubility (mole fraction) for "CC(=O)Nc1ccc([N+](=O)[O-])cc1" .
0.00193

* * *

Details: in DMF, 323.15 K
Measure: solubility (mole fraction)

Item under review: "CC(=O)Nc1ccc([N+](=O)[O-])cc1" . Reported solubility (mole fraction)?
0.187

* * *

Conditions: in n-heptanol, 323.15 K
Measure: solubility (mole fraction)
Give the figure by itself; no unit, no explanation.

Recorded solubility (mole fraction) for "CC(=O)Nc1ccc([N+](=O)[O-])cc1" , please?
0.013

* * *

Details: in isopropanol, 283.15 K
Measure: solubility (mole fraction)
Give a plain numeric answer without units written out.

# solubility (mole fraction) lookup, item "CC(=O)Nc1ccc([N+](=O)[O-])cc1"
0.00201

* * *

Settings: in isobutanol, 303.15 K
Measure: solubility (mole fraction)

For the compound shown here, "CC(=O)Nc1ccc([N+](=O)[O-])cc1" , give the reported solubility (mole fraction).
0.00335

* * *

Settings: in isobutanol, 283.15 K
Measure: solubility (mole fraction)
Reply: number alone, nothing else.

Consider the compound "CC(=O)Nc1ccc([N+](=O)[O-])cc1" and give its measured solubility (mole fraction).
0.00158

* * *

Details: in 1,4-dioxane, 323.15 K
Measure: solubility (mole fraction)
Reply: number alone, nothing else.

What solubility (mole fraction) value was documented for this compound, "CC(=O)Nc1ccc([N+](=O)[O-])cc1" ?
0.0182

* * *

Details: in ethylene glycol, 308.15 K
Measure: solubility (mole fraction)
API note: the answer field is a bare number with no unit suffix.

Bench note: what solubility (mole fraction) did "CC(=O)Nc1ccc([N+](=O)[O-])cc1" show?
0.00246

* * *

Conditions: in isopropanol, 323.15 K
Measure: solubility (mole fraction)

Recorded solubility (mole fraction) of "CC(=O)Nc1ccc([N+](=O)[O-])cc1" , please.
0.00868

* * *

Settings: in methanol, 283.15 K
Measure: solubility (mole fraction)
Simply state the number, no unit and no words.

Dear colleague, I am looking for the recorded solubility (mole fraction) of the following compound: "CC(=O)Nc1ccc([N+](=O)[O-])cc1"
0.00182

* * *

Conditions: in water, 303.15 K
Measure: solubility (mole fraction)
Could you keep your reply to the number by itself?

solubility (mole fraction) lookup needed for "CC(=O)Nc1ccc([N+](=O)[O-])cc1" , thanks.
2.23e-05

* * *

Settings: in n-butanol, 303.15 K
Measure: solubility (mole fraction)

Would you mind telling me what solubility (mole fraction) value was observed for "CC(=O)Nc1ccc([N+](=O)[O-])cc1" ?
0.00512

* * *

Conditions: in cyclohexane, 288.15 K
Measure: solubility (mole fraction)
Lab note: record the figure alone, no unit after it.

Dear colleague, I am looking for the recorded solubility (mole fraction) of the following molecule: "CC(=O)Nc1ccc([N+](=O)[O-])cc1"
2.71e-06

* * *

Settings: in NMP, 323.15 K
Measure: solubility (mole fraction)
// return just the number, without any unit appended

Recorded solubility (mole fraction) for "CC(=O)Nc1ccc([N+](=O)[O-])cc1" , please?
0.244

* * *

Conditions: in n-heptanol, 278.15 K
Measure: solubility (mole fraction)

For "CC(=O)Nc1ccc([N+](=O)[O-])cc1" , what is its reported solubility (mole fraction)?
0.00264

* * *

Settings: in water, 288.15 K
Measure: solubility (mole fraction)
Respond numerically, and do not add a unit to the figure.

solubility (mole fraction) for "CC(=O)Nc1ccc([N+](=O)[O-])cc1" ?
1.04e-05

* * *

Details: in isobutanol, 313.15 K
Measure: solubility (mole fraction)
Respond with the number and no other words.

Need solubility (mole fraction), item "CC(=O)Nc1ccc([N+](=O)[O-])cc1"
0.00488
